- Tested on: SK-N-AS (Neuroblastoma)
- assay.protocol: combination Emax (second highest fraction inhibited in the dose matrix, 72 h); higher = more inhibition; extreme values may be limits of the assay
Quick reference for combination Emax among some compounds
Please reply with the value in numeric form only.

Data request: Observed combination Emax on SK-N-AS (Neuroblastoma) for CC1(C)CCC(CN2CCN(c3ccc(C(=O)NS(=O)(=O)c4ccc(NCC5CCOCC5)c([N+](=O)[O-])c4)c(Oc4cnc5[nH]ccc5c4)c3)CC2)=C(c2ccc(Cl)cc2)C1 [Venetoclax] + C[C@@H](Nc1cc(F)cc(F)c1)c1cc(C(=O)N(C)C)cc2c(=O)cc(N3CCOCC3)oc12 [AZD8186] (first compound max 1 µM, 7x7, partner max 3 µM) , please.
Data returned: 0.0826

Could you now consider this next compound?
Data request: What measured combination Emax is associated with Cc1c2c(nn1C)CSCc1cc(n(C)n1)CSc1cc(c3ccccc3c1)OCCCc1c(C(=O)O)n(C)c3c-2c(Cl)ccc13 [AZD5991] + Nc1ccn([C@@H]2O[C@H](CO)[C@@H](O)C2(F)F)c(=O)n1 [Gemcitabine] (first compound max 1 µM, 7x7, partner max 0.3 µM) on SK-N-AS (Neuroblastoma)?
Data returned: 0.717

====

Measured Bliss excess, listed per entry for reference.
- System: NCI-H650 (Lung Adenocarcinoma)
- assay.protocol: Bliss excess, mean over the matrix (fraction); higher = more synergy
// print number alone

Data request: Which Bliss excess value is on record for C[C@@H](c1ccc2nccn2c1)n1nnc2ncc(-c3cnn(C)c3)nc21 [Savolitinib] + Cc1c2c(nn1C)CSCc1cc(n(C)n1)CSc1cc(c3ccccc3c1)OCCCc1c(C(=O)O)n(C)c3c-2c(Cl)ccc13 [AZD5991] (first compound max 1 µM, 7x7, partner max 1 µM) ?
Data returned: -0.045

Data request: Moving on to CN(C)CCCOc1ccc(-c2ccc3ncc4c(c3c2)n(C2CCOCC2)c(=O)n4C)cn1 [AZD0156] + C=CCn1c(=O)c2cnc(Nc3ccc(N4CCN(C)CC4)cc3)nc2n1-c1cccc(C(C)(C)O)n1 [AZD1775] (first compound max 1 µM, partner max 1 µM)
Data returned: -0.0593

====

- Tested on: MDA-MB-453 (Breast Carcinoma)
- assay.protocol: Bliss excess, mean over the matrix (fraction); higher = more synergy
Bliss excess by entry:
Keep it simple and answer with nothing but the number.

Answered cases to consult:
Data request: Query for MDA-MB-453 (Breast Carcinoma): what Bliss excess does the record show for CN(CCO)CC[C@H](CSc1ccccc1)Nc1ccc(S(=O)(=O)NC(=O)c2ccc(N3CCC([C@@H](O)c4ccccc4-c4ccc(Cl)cc4)CC3)cc2)cc1S(=O)(=O)C(F)(F)F [AZD4320] + Cc1cc2ncnn2cc1Nc1ncc2c(n1)n(C1CCOCC1)c(=O)n2C [AZD7648] (first compound max 1 µM, 7x7, partner max 10 µM) ?
Data returned: -0.0409

Data request: What about COc1cccc(OCCCN)c1-c1cc(Nc2cnc(C#N)cn2)n[nH]1 [Prexasertib] + Cc1cc2ncnn2cc1Nc1ncc2c(n1)n(C1CCOCC1)c(=O)n2C [AZD7648] (first compound max 1 µM, 7x7, partner max 10 µM) ?
Data returned: -0.0143

Data request: Can you handle CN(CCO)CC[C@H](CSc1ccccc1)Nc1ccc(S(=O)(=O)NC(=O)c2ccc(N3CCC([C@@H](O)c4ccccc4-c4ccc(Cl)cc4)CC3)cc2)cc1S(=O)(=O)C(F)(F)F [AZD4320] + CN(C)CCCOc1ccc(-c2ccc3ncc4c(c3c2)n(C2CCOCC2)c(=O)n4C)cn1 [AZD0156] (first compound max 1 µM, 7x7, partner max 1 µM) next?
Data returned: -0.0449

Data request: Lookup Cc1c2c(nn1C)CSCc1cc(n(C)n1)CSc1cc(c3ccccc3c1)OCCCc1c(C(=O)O)n(C)c3c-2c(Cl)ccc13 [AZD5991] + C1CN(CCC1(C(=O)N[C@@H](CCO)C2=CC=C(C=C2)Cl)N)C3=NC=NC4=C3C=CN4 [Capivasertib] (first compound max 1 µM, 7x7, partner max 3 µM)
Data returned: 0.05

---
Data request: Lab note: need Bliss excess for C[C@@H](Oc1cc(-c2cnn(C3CCNCC3)c2)cnc1N)c1c(Cl)ccc(F)c1Cl [Crizotinib] + Cn1cnc2c(F)c(Nc3ccc(Br)cc3Cl)c(C(=O)NOCCO)cc21 [Selumetinib] (first compound max 10 µM, 7x7, partner max 10 µM) on MDA-MB-453 (Breast Carcinoma), anyone have it?
Data returned: -0.0374

====

# Bliss excess per entry
- System: ME-180 (Cervical Carcinoma)
- assay.protocol: Bliss excess, mean over the matrix (fraction); higher = more synergy
Number only, no unit.

Example results:
Data request: # input compound: CC1(C)CCC(CN2CCN(c3ccc(C(=O)NS(=O)(=O)c4ccc(NCC5CCOCC5)c([N+](=O)[O-])c4)c(Oc4cnc5[nH]ccc5c4)c3)CC2)=C(c2ccc(Cl)cc2)C1 [Venetoclax] + COc1cc(Nc2ncc3c(n2)-c2ccc(Cl)cc2C(c2c(F)cccc2OC)=NC3)ccc1C(=O)O [Alisertib] (first compound max 1 µM, 7x7, partner max 10 µM) ; wanted: its Bliss excess
Data returned: -0.0226

Data request: Entry to check: CCN(CCO)CCCOc1ccc2c(Nc3cc(CC(=O)Nc4cccc(F)c4)[nH]n3)ncnc2c1 [AZD2811] + O=C(c1cc(Cc2n[nH]c(=O)c3ccccc23)ccc1F)N1CCN(C(=O)C2CC2)CC1 [Olaparib] (first compound max 1 µM, 7x7, partner max 10 µM)
Data returned: -0.0208

Data request: Moving on to COc1cccc(OCCCN)c1-c1cc(Nc2cnc(C#N)cn2)n[nH]1 [Prexasertib] + C[C@@H]1COCCN1C2=NC(=NC(=C2)C3(CC3)[S@](=N)(=O)C)C4=C5C=CNC5=NC=C4 [AZD6738] (first compound max 1 µM, 7x7, partner max 10 µM)
Data returned: 0.0255

Data request: Same read-out for Cc1c2c(nn1C)CSCc1cc(n(C)n1)CSc1cc(c3ccccc3c1)OCCCc1c(C(=O)O)n(C)c3c-2c(Cl)ccc13 [AZD5991] + CC1(C)CCC(CN2CCN(c3ccc(C(=O)NS(=O)(=O)c4ccc(NCC5CCOCC5)c([N+](=O)[O-])c4)c(Oc4cnc5[nH]ccc5c4)c3)CC2)=C(c2ccc(Cl)cc2)C1 [Venetoclax] (first compound max 1 µM, 7x7, partner max 1 µM) ?
Data returned: 0.0131

Data request: Next entry: CN(CCO)CC[C@H](CSc1ccccc1)Nc1ccc(S(=O)(=O)NC(=O)c2ccc(N3CCC([C@@H](O)c4ccccc4-c4ccc(Cl)cc4)CC3)cc2)cc1S(=O)(=O)C(F)(F)F [AZD4320] + Nc1ccn([C@@H]2O[C@H](CO)[C@@H](O)C2(F)F)c(=O)n1 [Gemcitabine] (first compound max 1 µM, 7x7, partner max 0.3 µM)
Data returned: -0.0249

Please examine the following record next.
Data request: Returns the measured Bliss excess for the input compound. Input: Cc1c2c(nn1C)CSCc1cc(n(C)n1)CSc1cc(c3ccccc3c1)OCCCc1c(C(=O)O)n(C)c3c-2c(Cl)ccc13 [AZD5991] + CN(C)CCCOc1ccc(-c2ccc3ncc4c(c3c2)n(C2CCOCC2)c(=O)n4C)cn1 [AZD0156] (first compound max 1 µM, 7x7, partner max 1 µM)
Data returned: 0.0231

====

Below, each entry is listed alongside its reported Bliss excess.
- Test system: NCI-H1993 (Lung Adenocarcinoma)
- assay.protocol: Bliss excess, mean over the matrix (fraction); higher = more synergy

Data request: Recorded Bliss excess for CS(=O)(=O)CCNCc1ccc(-c2ccc3ncnc(Nc4ccc(OCc5cccc(F)c5)c(Cl)c4)c3c2)o1 [Lapatinib] + NC1(c2ccc(-c3nc4ccn5c(=O)[nH]nc5c4cc3-c3ccccc3)cc2)CCC1 [MK-2206] (first compound max 10 µM, 7x7, partner max 10 µM) with NCI-H1993 (Lung Adenocarcinoma), please?
Data returned: -0.0147

More entries:
Data request: State its Bliss excess on NCI-H1993 (Lung Adenocarcinoma): CC1(C)CCC(CN2CCN(c3ccc(C(=O)NS(=O)(=O)c4ccc(NCC5CCOCC5)c([N+](=O)[O-])c4)c(Oc4cnc5[nH]ccc5c4)c3)CC2)=C(c2ccc(Cl)cc2)C1 [Venetoclax] + C1CN(CCC1(C(=O)N[C@@H](CCO)C2=CC=C(C=C2)Cl)N)C3=NC=NC4=C3C=CN4 [Capivasertib] (first compound max 1 µM, 7x7, partner max 3 µM)
Data returned: -0.001

Data request: Input N#Cc1cnc(Nc2cc(NC[C@H]3CNCCO3)c(C(F)(F)F)cn2)cn1 [SRA737] + O=c1[nH]cc(F)c(=O)[nH]1 [5-Fluorouracil] (first compound max 10 µM, 7x7, partner max 20 µM)
Data returned: 0.059

Data request: Now consider COc1cccc(OCCCN)c1-c1cc(Nc2cnc(C#N)cn2)n[nH]1 [Prexasertib] + CN(C)CCCOc1ccc(-c2ccc3ncc4c(c3c2)n(C2CCOCC2)c(=O)n4C)cn1 [AZD0156] (first compound max 1 µM, 7x7, partner max 1 µM) .
Data returned: -0.0768

This collection of values is drawn from the supplement of paper PMC11061612.
